assay.remarks: in vitro
condition.notes: dog
observation.type: CC50

For CC(C)(C)c1ccc(C(=O)Nc2ccc(Nc3ccccc3)cc2)cc1 [S119-8] the compound record lists CC50 as > 50 µM

* * *

Tested on: influenza A/WSN/33 virus
assay.remarks: microbe, parasite or virus in culture
Assay type: cell-based, influenza A virus (H1N1)
condition.notes: MDCK
observation.type: pIC50
# pIC50 is unitless: minus log10 of the molar concentration; print number only

# pIC50 of "CC(C)(C)c1ccc(C(=O)Nc2ccc(NC(=O)c3ccc(C(C)(C)C)cc3)cc2)cc1" = 7.22

* * *

Tested on: B/Yamagata/16/1988
assay.remarks: microbe, parasite or virus in culture
Format: cell-based
condition.notes: Influenza B virus, MDCK
observation.type: pIC50
pIC50 field: float, defined as -log10 of concentration (mol/L).

Record summary for CC(C)(C)c1ccc(C(=O)Nc2ccc(Nc3ccccc3)cc2)cc1 [S119-8] : reported pIC50 = 5.68

* * *

Tested on: A/Panama/2007/1999 (H3N2)
assay.remarks: microbe, parasite or virus in culture
Type: cell-based, influenza A virus
condition.notes: Influenza A virus, H3N2, A549
observation.type: pIC50
Answer as the number alone; pIC50 is minus log10 of concentration in mol/L.

// "CC(C)(C)c1ccc(C(=O)Nc2ccc(Nc3ccccc3)cc2)cc1" : pIC50 value = 5.19

* * *

assay.remarks: in vitro
condition.notes: human, CC50
observation.type: CC50

get_value(item= "CC(C)(C)c1ccc(C(=O)Nc2ccc(Nc3ccccc3)cc2)cc1" , readout=CC50) returns > 50 µM

* * *

Test system: A549 cells
condition.notes: human
observation.type: CC50 (µM)
Report as a plain number; the unit µM is understood.

A549 cells CC50 of "CC(C)(C)c1ccc(C(=O)Nc2ccc(Nc3ccccc3)cc2)cc1" is 40.7
